# Target Or Test System: T1, SUDV GP on rVSV particles (Sudan virus (SUDV), UniProt Q66814 33-676)
# T1 sequence: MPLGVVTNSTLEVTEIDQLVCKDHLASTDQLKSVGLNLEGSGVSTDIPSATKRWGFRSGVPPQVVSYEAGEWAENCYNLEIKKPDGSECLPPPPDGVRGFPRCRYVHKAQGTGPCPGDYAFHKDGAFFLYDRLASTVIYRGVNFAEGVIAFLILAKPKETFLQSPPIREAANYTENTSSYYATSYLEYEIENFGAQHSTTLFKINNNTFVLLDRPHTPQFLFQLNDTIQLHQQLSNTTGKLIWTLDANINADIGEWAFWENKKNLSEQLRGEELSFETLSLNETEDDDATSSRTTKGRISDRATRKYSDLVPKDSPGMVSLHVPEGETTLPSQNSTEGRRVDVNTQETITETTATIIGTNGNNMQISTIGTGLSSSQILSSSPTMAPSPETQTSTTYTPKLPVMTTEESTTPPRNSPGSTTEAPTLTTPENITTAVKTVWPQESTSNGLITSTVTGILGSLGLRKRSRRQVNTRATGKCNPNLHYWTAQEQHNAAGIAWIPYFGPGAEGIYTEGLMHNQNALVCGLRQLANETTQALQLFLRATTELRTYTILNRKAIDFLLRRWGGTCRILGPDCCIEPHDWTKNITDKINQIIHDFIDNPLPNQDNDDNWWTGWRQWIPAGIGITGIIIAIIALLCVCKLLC
# Assay Info: cell-based or functional assay
Assay Metric: IC50, half-maximal neutralization of viral infectivity (rVSV-GP) (nM)
Give the number; nM is assumed, so skip it.

The value of IC50, half-maximal neutralization of viral infectivity (rVSV-GP) measured for the binder PE-87 H100A (antibody, V domains shown) VH: QVQLVQSGVTLVQPGGSLRVSCAASGFTFSSYAMSWVRQAPGKGLEWVSAISGLGGSTYYADSVKGRFTISRDNSKNTLYLQMNSLRAEDTAVYYCAKDARVWAAGYHFDYWGQGALVTVSS VL: DIVLTQSPSTLSASVGDRVTITCRASQSISSWLAWYQQKPGEAPKLLISDASSLESGVPSRFSGSGSGTEFTLTISSLQPDDFATYYCQQYYSSPTFGGGTKVEIK turned out to be 1

***
GET /value?item= PE-87 D110A (antibody, V domains shown) VH: QVQLVQSGVTLVQPGGSLRVSCAASGFTFSSYAMSWVRQAPGKGLEWVSAISGLGGSTYYADSVKGRFTISRDNSKNTLYLQMNSLRAEDTAVYYCAKDHRVWAAGYHFAYWGQGALVTVSS VL: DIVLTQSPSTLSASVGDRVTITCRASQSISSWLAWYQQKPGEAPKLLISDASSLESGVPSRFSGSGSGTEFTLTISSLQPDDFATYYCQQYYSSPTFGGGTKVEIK &field=IC50, half-maximal neutralization of viral infectivity (rVSV-GP) returns 1.5

// provenance: patent EP3583122A1
